Hello, the source for this data is the supplement of paper PMC4466140, in case you need it.

Each item that follows carries a reported SPOT peptide array binding signal intensity.
target: SpSla1-D1-D2; assay: SPOT peptide array binding signal intensity (averaged, normalized) (arbitrary units (background-subtracted, floor 0; scale differs between SH3 domains)); higher = stronger binding of the SH3 domain to the peptide
// return a plain number; no unit text

> print(dat)
            binder  observed.result
1  SNRRPVPRRPSQPLN               21

Task: So what does the record say about SPOT peptide array binding signal intensity for `IHTRRPSSTSQYLIR` ?
Output: 2
